- Test system: CD2F1 mice, L1210 leukemia ip, survival T/C
- assay.notes: NCI In Vivo Anticancer Drug Screen. Data for tumor model L1210 Leukemia (intraperitoneal) in CD2F1 (CDF1) mice
- condition.parameters: endpoint: median survival time; dose: 25.0 mg/kg/injection; schedule: Q01DX009 (ip); vehicle: saline with Tween-80; higher = longer survival
Toxic doses and inconclusive results are not listed.
reported.metric: T/C

O=[N+]([O-])c1ccc(N2CCOCC2)c2c1no[n+]2[O-]: 112 % of control

Asked: Item `Nc1nc(N)c2cc(S(=O)(=O)c3ccccc3)ccc2n1` has what recorded T/C?
Given back: 98 % of control

Asked: Next up: `CCC(=O)Sc1ccccc1C(=O)Nc1ccc(Cl)cc1`
Given back: 112 % of control

Asked: Same thing, different compound: CCCCCCCCCCCCCCCCCCOCC(CO)OC (stereo unspecified)
Given back: 104 % of control

Asked: What about this compound? `Cn1nnc2c(C(N)=O)ncn2c1=O`
Given back: 151 % of control

Asked: // next record `O=C(CCCCCCC(=O)ON1C(=O)CCC1=O)ON1C(=O)CCC1=O`
Given back: 102 % of control

----------
- System: CD2F1 mice, L1210 leukemia ip, survival T/C
- assay.notes: NCI In Vivo Anticancer Drug Screen. Data for tumor model L1210 Leukemia (intraperitoneal) in CD2F1 (CDF1) mice
- condition.parameters: endpoint: mean survival time; dose: 75.0 mg/kg/injection; schedule: Q01DX009 (ip); vehicle: saline; higher = longer survival
Inconclusive results and toxic doses are left out.
Measured T/C accompanies every entry in the list below.

O=C(O)c1ccc([N+](=O)[O-])cc1P(=O)(O)O: 95 % of control
O=S(O)OS(=O)O: 91 % of control
OCC1OC(n2cnc3c(=S)nc[nH]c32)C(O)C1O (centres undefined): 107 % of control

Asked: Quick check: T/C on CD2F1 mice, L1210 leukemia ip, survival T/C, item `CC[Si](CC)(CC)c1ccc(CCNCCS)s1` ?
Given back: 101 % of control

----------
- Tested on: CD2F1 mice, L1210 leukemia ip, survival T/C
- assay.notes: NCI In Vivo Anticancer Drug Screen. Data for tumor model L1210 Leukemia (intraperitoneal) in CD2F1 (CDF1) mice
- condition.parameters: endpoint: mean survival time; dose: 25.0 mg/kg/injection; schedule: Q01DX005 (ip); vehicle: distilled water + Tween-80; higher = longer survival
Toxic doses and inconclusive results are not listed.
reported.metric: T/C

Asked: Fill blank: measured T/C of the molecule `Cn1c(=O)c2c(ncn2C2C(=O)NNC2=O)n(C)c1=O` is ____.
Given back: 104 % of control

Asked: Next molecule up: Cc1cn(C2CC(O)C(CS[As](C)C)O2)c(=O)[nH]c1=O (stereo not given)
Given back: 102 % of control

Asked: Same for Cn1c(=O)c2c(nc(N3CCOCC3)n2CC(O)CF)n(C)c1=O (stereo not given)
Given back: 98 % of control

Asked: Try this molecule too: CCCCC(Sc1n[nH]c(=O)[nH]c1=O)C(=O)OCC (stereo not given)
Given back: 100 % of control

Asked: // next record COC(=O)CNc1ccn(C2OC(CO)C(O)C2O)c(=O)n1 (stereo not given)
Given back: 100 % of control

----------
Some compounds, each annotated with its measured T/C.
- System: CD2F1 mice, L1210 leukemia ip, survival T/C
- assay.notes: NCI In Vivo Anticancer Drug Screen. Data for tumor model L1210 Leukemia (intraperitoneal) in CD2F1 (CDF1) mice
- condition.parameters: endpoint: mean survival time; dose: 50.0 mg/kg/injection; schedule: Q01DX001 (ip); vehicle: saline; higher = longer survival
Inconclusive results and toxic doses are left out.

Reference set (3 entries):
O=c1[nH]cnc2c1ncn2C1OC(CO)C(O)C1O (centres undefined): 100 % of control
CN(C)CC(CN(C)C)C(=O)O: 103 % of control
NCCCCCC(=O)O: 98 % of control

In the following, a different compound is considered.
Asked: Name the recorded T/C for `Cc1ccc(-c2oc3ccccc3c(=O)c2O)cc1` .
Given back: 98 % of control
